Hello, the source for this data is ChEMBL document CHEMBL2401710, in case you need it.

experiment: Half life in rat at 5 mg/kg, iv; assay type: ADME, organism-based; design: dose 5 mg/kg, route intravenous; details: in vivo
value.kind: half-life (h)

• CN(C)CC(C)(C)COc1cccc(-c2sc(Nc3cccnc3Oc3ccccc3C(C)(C)C)nc2C(F)(F)F)c1 = 2.1
